assay: Volume of distribution at steady state in Sprague-Dawley rat at 1 mg/kg, iv measured upto 6 hrs by LC-MS/MS analysis; assay type: ADME, organism-based; conditions: in vivo, read-out: Vdss
recorded.endpoint: Vd (L/kg)
Could you give me the number in L/kg? Just the number is fine.

// lookup Vd for Cc1ncccc1C(=O)N([C@@H]1CCc2c(F)cc(Cl)cc21)[C@@H](C(N)=O)c1ccccc1
1.89

* * *

assay: AUC (0 to infinity) in Sprague-Dawley rat at 1 mg/kg, iv by LC-MS/MS analysis; type: ADME, organism-based; set-up: time infinity, route intravenous, dose 1 mg/kg; settings: in vivo
recorded.endpoint: AUC(0-inf)
Note: state the figure and append the unit.

// lookup AUC(0-inf) for Cc1ncccc1C(=O)N([C@@H]1CCc2c(F)cc(Cl)cc21)[C@@H](C(N)=O)c1ccccc1
674 ng·h/mL

* * *

test: Total clearance in Sprague-Dawley rat at 1 mg/kg, iv measured upto 6 hrs by LC-MS/MS analysis; type: ADME, organism-based; conditions: in vivo
recorded.endpoint: clearance (mL/min/kg)
Could you give me the number in mL/min/kg? Just the number is fine.

// lookup clearance for Cc1ncccc1C(=O)N([C@@H]1CCc2c(F)cc(Cl)cc21)[C@@H](C(N)=O)c1ccccc1
25

* * *

target: Transient receptor potential cation channel subfamily V member 1 (Homo sapiens); assay: Inhibition of human TRPV1 transfected in HEK293T cells assessed as reduction in capsaicin-induced calcium influx measured after 60 mins by Fluo-4 AM dye based fluorescence analysis
Sequence (Q8NER1 whole entry): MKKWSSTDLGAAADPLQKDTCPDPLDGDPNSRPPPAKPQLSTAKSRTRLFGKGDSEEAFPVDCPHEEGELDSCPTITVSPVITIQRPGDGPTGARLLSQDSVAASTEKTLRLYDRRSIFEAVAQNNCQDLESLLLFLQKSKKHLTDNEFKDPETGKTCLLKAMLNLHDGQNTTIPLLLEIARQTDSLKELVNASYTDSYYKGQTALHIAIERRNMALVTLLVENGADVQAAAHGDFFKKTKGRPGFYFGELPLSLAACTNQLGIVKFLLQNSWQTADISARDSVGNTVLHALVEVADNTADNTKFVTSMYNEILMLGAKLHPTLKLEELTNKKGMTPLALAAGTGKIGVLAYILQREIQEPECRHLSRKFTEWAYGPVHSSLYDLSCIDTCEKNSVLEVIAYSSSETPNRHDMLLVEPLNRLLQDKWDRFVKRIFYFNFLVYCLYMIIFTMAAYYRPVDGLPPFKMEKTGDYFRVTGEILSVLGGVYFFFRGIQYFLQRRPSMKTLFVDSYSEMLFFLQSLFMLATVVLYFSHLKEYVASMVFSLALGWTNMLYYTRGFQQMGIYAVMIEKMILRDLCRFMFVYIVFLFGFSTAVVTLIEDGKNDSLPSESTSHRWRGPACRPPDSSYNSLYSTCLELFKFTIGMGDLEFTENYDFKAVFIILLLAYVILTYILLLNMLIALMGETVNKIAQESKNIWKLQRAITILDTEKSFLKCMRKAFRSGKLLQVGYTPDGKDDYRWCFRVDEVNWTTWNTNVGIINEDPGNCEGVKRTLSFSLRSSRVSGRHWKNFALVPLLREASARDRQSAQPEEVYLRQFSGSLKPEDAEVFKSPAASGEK
pIC50: −log10 of the molar value.
recorded.endpoint: pIC50

// lookup pIC50 for Cc1ncccc1C(=O)N([C@@H]1CCc2c(F)cc(Cl)cc21)[C@@H](C(N)=O)c1ccccc1
< 4.52

* * *

assay: Drug uptake in rat brain measured after 4 hrs; type: ADME, tissue-based; details: read-out: Drug uptake
recorded.endpoint: concentration at 4 h (µM)
Could you give me the number in µM? Just the number is fine.

// lookup concentration at 4 h for C[C@H](c1cc(F)cc(F)c1)N(C(=O)c1ccccc1)[C@@H](C(N)=O)c1ccccc1
171

* * *

assay: AUC (0 to infinity) in Sprague-Dawley rat at 3 mg/kg, po by LC-MS/MS analysis; type: ADME, organism-based; set-up: time infinity, route oral, dose 3 mg/kg; conditions: in vivo
recorded.endpoint: AUC(0-inf) (ng·h/mL)
Could you give me the number in ng·h/mL? Just the number is fine.

// lookup AUC(0-inf) for Cc1ncccc1C(=O)N([C@@H]1CCc2c(F)cc(Cl)cc21)[C@@H](C(N)=O)c1ccccc1
1110

* * *

assay: Plasma concentration in rat measured after 4 hrs; format: ADME, cell-free
recorded.endpoint: concentration at 4 h (µM)
Could you give me the number in µM? Just the number is fine.

// lookup concentration at 4 h for C[C@H](c1cc(F)cc(F)c1)N(C(=O)c1ccccc1)[C@@H](C(N)=O)c1ccccc1
103

* * *

target: UniProtKB Q7Z2W7; assay: Antagonist activity at human TRPM8 transfected in HEK293T cells assessed as reduction in menthol-induced calcium influx measured after 60 mins by Fluo-4 AM dye based fluorescence analysis
Sequence (Q7Z2W7 whole entry): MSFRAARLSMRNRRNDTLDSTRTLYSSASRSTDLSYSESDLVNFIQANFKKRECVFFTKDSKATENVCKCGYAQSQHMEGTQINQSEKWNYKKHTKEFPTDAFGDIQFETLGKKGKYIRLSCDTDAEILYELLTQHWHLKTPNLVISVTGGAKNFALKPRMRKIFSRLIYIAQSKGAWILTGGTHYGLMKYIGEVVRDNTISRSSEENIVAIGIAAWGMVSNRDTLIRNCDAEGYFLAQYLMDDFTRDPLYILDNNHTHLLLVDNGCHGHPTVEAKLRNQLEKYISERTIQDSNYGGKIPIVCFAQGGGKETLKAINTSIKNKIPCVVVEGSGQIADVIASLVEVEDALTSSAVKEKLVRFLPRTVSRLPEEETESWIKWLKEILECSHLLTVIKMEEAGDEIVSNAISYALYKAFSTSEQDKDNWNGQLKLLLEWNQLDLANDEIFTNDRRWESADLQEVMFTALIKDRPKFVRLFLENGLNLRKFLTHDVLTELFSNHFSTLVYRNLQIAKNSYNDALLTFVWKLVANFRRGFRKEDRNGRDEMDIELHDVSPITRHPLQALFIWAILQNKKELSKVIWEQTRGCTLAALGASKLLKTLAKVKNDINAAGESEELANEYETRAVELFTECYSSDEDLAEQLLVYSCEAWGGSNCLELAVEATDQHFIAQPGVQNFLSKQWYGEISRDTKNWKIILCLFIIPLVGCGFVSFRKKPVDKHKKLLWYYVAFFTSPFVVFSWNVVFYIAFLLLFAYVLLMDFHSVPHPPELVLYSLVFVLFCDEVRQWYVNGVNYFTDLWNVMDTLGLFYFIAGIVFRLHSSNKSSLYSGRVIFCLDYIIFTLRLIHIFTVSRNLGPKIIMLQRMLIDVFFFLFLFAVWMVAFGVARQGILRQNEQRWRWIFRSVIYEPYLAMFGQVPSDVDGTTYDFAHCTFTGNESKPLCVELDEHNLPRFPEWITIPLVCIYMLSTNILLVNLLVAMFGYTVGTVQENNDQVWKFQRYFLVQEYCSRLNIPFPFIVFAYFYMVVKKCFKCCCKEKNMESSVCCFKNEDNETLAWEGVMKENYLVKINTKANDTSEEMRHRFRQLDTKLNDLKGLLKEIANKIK
recorded.endpoint: pIC50
// scale note: pIC50 = -log10(conc_M); give the bare number

// lookup pIC50 for NC(=O)[C@@H](c1ccccc1)N(C(=O)c1ccccc1)[C@@H]1CCc2ncccc21
4.71
